Target: Gluocorticoid receptor of thymus of rats (Rattus norvegicus)
Construct: The thymus were removed and homogenized at 0° C; from tissue; host or cells: rat thymus, 105,000 g supernatant (adrenalectomized male Sprague-Dawley rats)
Assay: Glucocorticoid receptor binding (displacement of tritiated dexamethasone)
Conditions: second table; incubation 24 H at 0° C.
Give relative affinity of tieing (ARL), Glucocorticoid for every item shown.
Give bare numbers.

Use the examples below as a reference point.
Lab note: C=C(C)C#C[C@]1(O)CC[C@H]2[C@@H]3CCC4=CC(=O)CCC4=C3[C@@H](c3ccc(N(C)C)cc3)C[C@@]21C gave relative affinity of tieing (ARL), Glucocorticoid of 167

Lab note: C#C[C@@]1(O)CC[C@H]2[C@@H]3CCC4=CC(=O)CCC4=C3[C@@H](c3ccc(N(C)C)cc3)C[C@@]21C gave relative affinity of tieing (ARL), Glucocorticoid of 118

***
Lab note: C#C[C@]1(O)CC[C@H]2[C@@H]3CCC4=CC(=O)CCC4=C3[C@@H](c3ccc(N(C)C)cc3)C[C@@]21C gave relative affinity of tieing (ARL), Glucocorticoid of 235

----------
Give inhibition at 0.01 µM for every item shown.
System: thymocytes of surrenalectomized rats
Assay: Antiglucocorticoidal activity, incorporation of tritiated uridine in thymocytes
Type: cell-based
Conditions: Rattus norvegicus, Thymocyte; second table; 5 × 10^-8 M dexamethasone + test product 10^-8 M; read-out: % of inhibition of effect of Dexamethasone
Give bare numbers, in %.

Lab note: C[C@]12C[C@H](c3ccc([N+](C)(C)[O-])cc3)C3=C4CCC(=O)C=C4CC[C@H]3[C@@H]1CC[C@@]2(O)C#CCl gave inhibition at 0.01 µM of 14

Lab note: C=C(C)C#C[C@]1(O)CC[C@H]2[C@@H]3CCC4=CC(=O)CCC4=C3[C@@H](c3ccc(N(C)C)cc3)C[C@@]21C gave inhibition at 0.01 µM of 22

Next, consider the following molecule.
Lab note: CC#C[C@]1(O)CC[C@H]2[C@@H]3CCC4=CC(=O)CCC4=C3[C@@H](c3ccc([N+](C)(C)[O-])cc3)C[C@@]21C gave inhibition at 0.01 µM of 4

----------
Molecular target: Androgen receptor of prostate of rats (Rattus norvegicus, UniProt P15207)
Construct: The prostates were removed, weighed and homogenized at 0° C; from tissue; host or cells: rat prostate, 105,000 g supernatant (castrated male Sprague-Dawley rats)
Sequence (P15207 whole entry S389L): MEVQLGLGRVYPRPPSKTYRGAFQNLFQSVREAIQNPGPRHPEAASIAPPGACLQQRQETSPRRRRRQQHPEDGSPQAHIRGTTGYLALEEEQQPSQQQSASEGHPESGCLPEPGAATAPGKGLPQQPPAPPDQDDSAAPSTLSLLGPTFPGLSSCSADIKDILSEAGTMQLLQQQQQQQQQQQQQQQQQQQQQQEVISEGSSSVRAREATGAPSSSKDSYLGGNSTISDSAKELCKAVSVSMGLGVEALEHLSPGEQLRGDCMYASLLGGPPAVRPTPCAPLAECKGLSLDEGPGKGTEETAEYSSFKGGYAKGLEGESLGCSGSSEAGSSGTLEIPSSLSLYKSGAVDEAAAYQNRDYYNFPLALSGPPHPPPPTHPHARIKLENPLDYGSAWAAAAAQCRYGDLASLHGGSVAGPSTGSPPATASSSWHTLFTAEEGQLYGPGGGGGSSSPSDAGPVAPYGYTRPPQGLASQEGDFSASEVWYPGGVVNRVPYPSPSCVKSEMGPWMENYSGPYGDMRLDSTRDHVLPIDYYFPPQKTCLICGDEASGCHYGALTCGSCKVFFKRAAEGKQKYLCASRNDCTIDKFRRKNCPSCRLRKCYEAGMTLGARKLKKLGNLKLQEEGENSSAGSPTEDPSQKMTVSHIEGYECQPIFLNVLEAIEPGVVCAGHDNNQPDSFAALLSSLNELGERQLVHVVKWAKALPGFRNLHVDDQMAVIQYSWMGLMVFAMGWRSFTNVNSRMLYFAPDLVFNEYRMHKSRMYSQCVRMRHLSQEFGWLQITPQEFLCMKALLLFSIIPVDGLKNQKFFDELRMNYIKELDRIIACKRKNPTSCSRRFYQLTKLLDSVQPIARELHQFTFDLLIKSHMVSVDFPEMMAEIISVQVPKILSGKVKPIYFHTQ
Assay: Androgen receptor binding (displacement of tritiated product P)
Settings: incubation 24 H at 0° C.
Give relative affinity of tieing (ARL), Androgen for every item shown.

Use the examples below as a reference point.
Lab note: CN(C)CCOc1ccc2c(c1)CC[C@@H]1[C@@H]2[C@@H](c2ccccc2)C[C@]2(C)[C@@H](O)CC[C@@H]12 [Example 15] gave relative affinity of tieing (ARL), Androgen of 0,2

Lab note: CC#C[C@]1(O)CC[C@H]2[C@@H]3CCC4=CC(=O)[C@H](C)CC4=C3[C@@H](c3ccc(N(C)C)cc3)C[C@@]21C [5 (2α)] gave relative affinity of tieing (ARL), Androgen of 0,4

Lab note: CC#C[C@]1(O)CC[C@H]2[C@@H]3CCC4=CC(=O)[C@@H](C)CC4=C3[C@@H](c3ccc(N(C)C)cc3)C[C@@]21C [5 (2β)] gave relative affinity of tieing (ARL), Androgen of 0,5

Lab note: CN(C)CCOc1ccc([C@H]2C[C@]3(C)[C@@H](O)CC[C@H]3[C@@H]3CCc4cc(O)ccc4[C@H]32)cc1 [Example 13] gave relative affinity of tieing (ARL), Androgen of 6

Lab note: CC#C[C@]1(OC(C)=O)CC[C@H]2[C@@H]3CCc4cc(O)ccc4[C@H]3[C@@H](c3ccc(N(C)C)cc3)C[C@@]21C [2 (17 OAc)] gave relative affinity of tieing (ARL), Androgen of < 0,1

Return reported relative affinity of tieing (ARL), Androgen values for all items listed beneath this line.
1. CN(C)CCOc1ccc([C@H]2C[C@]3(C)[C@@H](O)CC[C@H]3[C@@H]3CCc4ccccc4[C@H]32)cc1 [Example 14]
2. CC#C[C@]1(O)CC[C@H]2[C@@H]3CCC4=CC(=O)C(C#N)(C#N)CC4=C3[C@@H](c3ccc(N(C)C)cc3)C[C@@]21C [Example 9]

[reply]
1: 0,5; 2: < 0,1

----------
Molecular target: Estrogen receptor of uterus of mice (Mus musculus)
Construct: the uterus were removed and homogenized at 0° C; from tissue; host or cells: mouse uterus, 105,000 g supernatant (immature females 18 to 21 days old)
Sequence (P19785 whole entry): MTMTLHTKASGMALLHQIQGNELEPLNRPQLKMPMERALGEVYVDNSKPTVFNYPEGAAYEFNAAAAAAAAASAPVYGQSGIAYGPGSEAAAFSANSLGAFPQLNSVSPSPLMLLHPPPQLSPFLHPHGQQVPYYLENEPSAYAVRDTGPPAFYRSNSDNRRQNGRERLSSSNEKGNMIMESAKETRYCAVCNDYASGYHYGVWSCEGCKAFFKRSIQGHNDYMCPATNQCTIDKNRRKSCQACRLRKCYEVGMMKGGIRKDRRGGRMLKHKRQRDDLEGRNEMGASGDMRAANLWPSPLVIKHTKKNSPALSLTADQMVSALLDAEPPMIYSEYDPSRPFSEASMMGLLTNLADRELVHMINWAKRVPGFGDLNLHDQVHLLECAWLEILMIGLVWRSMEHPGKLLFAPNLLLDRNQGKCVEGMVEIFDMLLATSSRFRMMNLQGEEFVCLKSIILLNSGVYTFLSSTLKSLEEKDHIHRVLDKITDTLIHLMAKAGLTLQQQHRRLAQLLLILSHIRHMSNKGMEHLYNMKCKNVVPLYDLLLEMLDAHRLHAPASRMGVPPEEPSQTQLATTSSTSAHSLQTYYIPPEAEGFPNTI
Assay: Estrogen receptor binding (displacement of tritiated estradiol)
Settings: incubation 2 H at 0° C.
READOUT_NAME: relative affinity of tieing (ARL), Estrogen

Use the examples below as a reference point.
Lab note: CC#C[C@]1(O)CC[C@H]2[C@@H]3CCC4=CC(=O)[C@H](C)CC4=C3[C@@H](c3ccc(N(C)C)cc3)C[C@@]21C gave relative affinity of tieing (ARL), Estrogen of < 0,1

Lab note: CC#C[C@]1(OC(C)=O)CC[C@H]2[C@@H]3CCc4cc(O)ccc4[C@H]3[C@@H](c3ccc(N(C)C)cc3)C[C@@]21C gave relative affinity of tieing (ARL), Estrogen of < 0,1

Lab note: CN(C)CCOc1ccc2c(c1)CC[C@@H]1[C@@H]2[C@@H](c2ccccc2)C[C@]2(C)[C@@H](O)CC[C@@H]12 gave relative affinity of tieing (ARL), Estrogen of 0,1

Lab note: CN(C)CCOc1ccc([C@H]2C[C@]3(C)[C@@H](O)CC[C@H]3[C@@H]3CCc4cc(O)ccc4[C@H]32)cc1 gave relative affinity of tieing (ARL), Estrogen of 78

Lab note: CC#C[C@]1(O)CC[C@H]2[C@@H]3CCC4=C(CCC(=O)C4)[C@H]3[C@@H](c3ccc(N(C)C)cc3)C[C@@]21C gave relative affinity of tieing (ARL), Estrogen of < 0,1

Lab note: CC#C[C@]1(O)CC[C@H]2[C@@H]3CCC4=CC(=O)C(C#N)(C#N)CC4=C3[C@@H](c3ccc(N(C)C)cc3)C[C@@]21C gave relative affinity of tieing (ARL), Estrogen of < 0,1

Lab note: CC#C[C@]1(O)CC[C@H]2[C@@H]3CCC4=CC(=O)[C@@H](C)CC4=C3[C@@H](c3ccc(N(C)C)cc3)C[C@@]21C gave relative affinity of tieing (ARL), Estrogen of < 0,1

Lab note: CC#C[C@]1(O)CC[C@H]2[C@@H]3CCC4=CC(=O)C(C)(C)CC4=C3[C@@H](c3ccc(N(C)C)cc3)C[C@@]21C gave relative affinity of tieing (ARL), Estrogen of < 0,1

Next, consider the following compound.
Lab note: CN(C)CCOc1ccc([C@H]2C[C@]3(C)[C@@H](O)CC[C@H]3[C@@H]3CCc4ccccc4[C@H]32)cc1 gave relative affinity of tieing (ARL), Estrogen of 4,1

----------
Biological target: Gluocorticoid receptor of thymus of rats (Rattus norvegicus, UniProt P06536)
Construct: The thymus were removed and homogenized at 0° C; from tissue; host or cells: rat thymus, 105,000 g supernatant (adrenalectomized male Sprague-Dawley rats)
Sequence (P06536 whole entry): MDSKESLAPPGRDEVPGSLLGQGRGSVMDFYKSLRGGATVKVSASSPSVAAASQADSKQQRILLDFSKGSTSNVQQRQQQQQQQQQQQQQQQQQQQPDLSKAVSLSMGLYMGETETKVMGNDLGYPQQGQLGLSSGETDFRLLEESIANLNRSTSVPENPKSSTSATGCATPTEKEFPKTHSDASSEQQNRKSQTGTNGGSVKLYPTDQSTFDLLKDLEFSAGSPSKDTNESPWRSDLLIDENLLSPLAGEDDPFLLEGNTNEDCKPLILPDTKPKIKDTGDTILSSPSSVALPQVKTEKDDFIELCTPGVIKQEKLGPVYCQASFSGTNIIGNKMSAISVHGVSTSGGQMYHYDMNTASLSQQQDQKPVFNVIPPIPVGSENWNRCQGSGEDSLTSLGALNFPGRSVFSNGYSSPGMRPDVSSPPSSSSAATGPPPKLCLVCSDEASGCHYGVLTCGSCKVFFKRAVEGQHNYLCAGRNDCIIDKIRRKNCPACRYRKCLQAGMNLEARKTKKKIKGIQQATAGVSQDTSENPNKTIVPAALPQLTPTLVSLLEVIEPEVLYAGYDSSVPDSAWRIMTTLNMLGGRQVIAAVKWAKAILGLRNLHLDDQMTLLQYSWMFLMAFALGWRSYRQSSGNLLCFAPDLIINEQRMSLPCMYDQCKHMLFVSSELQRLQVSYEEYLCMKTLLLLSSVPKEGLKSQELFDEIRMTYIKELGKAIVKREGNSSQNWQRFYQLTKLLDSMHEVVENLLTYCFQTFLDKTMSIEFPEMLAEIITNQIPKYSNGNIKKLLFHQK
Experiment: Glucocorticoid receptor binding (displacement of tritiated dexamethasone)
Conditions: incubation 24 H at 0° C.
READOUT_NAME: relative affinity of tieing (ARL), Glucocorticoid

Lab note: CC#C[C@]1(O)CC[C@H]2[C@@H]3CCC4=CC(=O)C(C)(C)CC4=C3[C@@H](c3ccc(N(C)C)cc3)C[C@@]21C [Example 1] gave relative affinity of tieing (ARL), Glucocorticoid of 38

Lab note: CC#C[C@]1(O)CC[C@H]2[C@@H]3CCC4=CC(=O)[C@H](C)CC4=C3[C@@H](c3ccc(N(C)C)cc3)C[C@@]21C [5 (2α)] gave relative affinity of tieing (ARL), Glucocorticoid of 255

Lab note: CC#C[C@]1(O)CC[C@H]2[C@@H]3CCC4=CC(=O)[C@@H](C)CC4=C3[C@@H](c3ccc(N(C)C)cc3)C[C@@]21C [5 (2β)] gave relative affinity of tieing (ARL), Glucocorticoid of 299

Lab note: CC#C[C@]1(O)CC[C@H]2[C@@H]3CCC4=C(CCC(=O)C4)[C@H]3[C@@H](c3ccc(N(C)C)cc3)C[C@@]21C [Example 10] gave relative affinity of tieing (ARL), Glucocorticoid of 115

Lab note: CC#C[C@]1(O)CC[C@H]2[C@@H]3CCC4=CC(=O)C(C#N)(C#N)CC4=C3[C@@H](c3ccc(N(C)C)cc3)C[C@@]21C [Example 9] gave relative affinity of tieing (ARL), Glucocorticoid of 7

Next, consider the following compound.
Lab note: CC#C[C@]1(OC(C)=O)CC[C@H]2[C@@H]3CCc4cc(O)ccc4[C@H]3[C@@H](c3ccc(N(C)C)cc3)C[C@@]21C [2 (17 OAc)] gave relative affinity of tieing (ARL), Glucocorticoid of 100
